System: NCI-H292 lung cancer cells
Test Description: FDA drug screening, complete media vs cholesterol-free media with simvastatin (TABLE 2)
Assay type: cell-based, human
Counter-ions that a name gives are not always drawn.
Decision: Complete Media beneath 1 gives true (1); Complete Media meeting or exceeding 1 gives false (0).

O=C(OCC(O)CO)c1ccccc1Nc1ccnc2cc(Cl)ccc12 (stereo not drawn) [Glafenine]
false (0)
N#Cc1ccc(C2CCCc3cncn32)cc1 (stereo not drawn) [Fadrozole]
false (0)
CC(C)OC(=O)[C@H](C)N[P@](=O)(CO[C@H](C)Cn1cnc2c(N)ncnc21)Oc1ccccc1 [Tenofovir alafenamide]
true (1)
C[C@]12C=CC(=O)N[C@@H]1CC[C@@H]1[C@@H]2CC[C@]2(C)[C@@H](C(=O)Nc3cc(C(F)(F)F)ccc3C(F)(F)F)CC[C@@H]12 [Dutasteride]
false (0)
OCCOc1ccc(/C(=C(/CCCl)c2ccccc2)c2ccccc2)cc1
false (0)
NC1=NCC2c3ccccc3Cc3ccccc3N12 (stereo not drawn) [Epinastine]
true (1)

Regarding N#Cc1ccc(C2CCCc3cncn32)cc1 (stereo not drawn) [Fadrozole hydrochloride] , kindly confirm whether its Complete Media is beneath 1.
true (1)

Bench note: check whether "Cc1ccc(C(=O)Nc2ccc(CN3CCN(C)CC3)c(C(F)(F)F)c2)cc1C#Cc1cnc2cccnn12" shows Complete Media below 1
true (1)

###

Tested on: NCI-H292 lung cancer cells
Test Description: FDA drug screening, complete media vs cholesterol-free media without statin (TABLE 1)
Type: cell-based, human
Condition Set: NCI-H292 cells, cholesterol-free media without statin, FDA drug library screen
Counter-ions that a name gives are not always drawn.
Reported Property: Cholesterol-free
Keep the answer to the number alone.

C[C@@H]1C[C@H]2[C@@H]3CCC4=CC(=O)C=C[C@]4(C)[C@@]3(F)[C@@H](O)C[C@]2(C)[C@H]1C(=O)CO [Desoximetasone]
0.8359

Short answer on NCI-H292 lung cancer cells for CN(Cc1cnc2nc(N)nc(N)c2n1)c1ccc(C(=O)N[C@@H](CCC(=O)[O-])C(=O)[O-])cc1.[Na+].[Na+] [Methotrexate (disodium)] , Cholesterol-free: 0.06701

Form: item CN(C)CCCC1(c2ccc(F)cc2)OCc2cc(C#N)ccc21 (stereo not drawn) [Citalopram (hydrobromide)] ; test system NCI-H292 lung cancer cells; Cholesterol-free: 0.8091

###

Tested on: NCI-H292 lung cancer cells
Test Description: FDA drug screening, complete media vs cholesterol-free media without statin (TABLE 1)
Assay type: cell-based, human
Condition Set: Complete minus Cholesterol-free; >0 enhanced anti-cancer activity, about 0 neutral, <0 antagonist
Where a name gives a salt, the structure may show the parent alone.
Listing: Difference of selected molecules
Hey, just send me the number, nothing else.

Cc1ccc(C(C)C)cc2c(C)ccc1-2
−0.21
O=c1[nH]cnc2c1ncn2[C@@H]1O[C@H](CO)[C@@H](O)[C@H]1O
0.02
c1ccc2c(c1)CCCC2C1=NCCN1 (stereo not shown) [Tetrahydrozoline (hydrochloride)]
−0.03
CC(=O)c1c(C)c2cnc(Nc3ccc(N4CCNCC4)cn3)nc2n(C2CCCC2)c1=O [Palbociclib (hydrochloride)]
−0.26
COc1ccc2cc1Oc1ccc(cc1)C[C@H]1c3c(cc4c(c3Oc3cc5c(cc3OC)CCN(C)[C@@H]5C2)OCO4)CCN1C [cepharanthine, reference compound]
0.04
COc1cc(Nc2ncc(F)c(Nc3ccc4c(n3)N(COP(=O)(O)O)C(=O)C(C)(C)O4)n2)cc(OC)c1OC [Fostamatinib (disodium hexahydrate)]
0.00
CN(CCOc1ccc(CC2SC(=O)NC2=O)cc1)c1ccccn1 (stereo not shown)
−0.21
CN1CCN(C2=Nc3ccccc3Oc3ccc(Cl)cc32)CC1
−0.26
NC(=O)CN1CC(O)CC1=O (stereo not shown)
−0.22
COc1cc2c(cc1OC)[C@@H]1Cc3ccc(OC)c(OC)c3CN1CC2
−0.21

Lookup result for CCCC(CCC)C(N)=O [Valpromide] ; measured Difference: −0.27

What the record says about CCc1ccc(CCOc2ccc(CC3SC(=O)NC3=O)cc2)nc1 (stereo not shown) [Pioglitazone (hydrochloride)] : Difference is −0.30

Just so you know, measured Difference for CCCC(=O)O[C@]1(C(=O)CO)CC[C@H]2[C@@H]3CCC4=CC(=O)CC[C@]4(C)[C@H]3[C@@H](O)C[C@@]21C [Hydrocortisone 17-butyrate] came out at −0.03

###

Measured Cholesterol-free media + simvastatin (0.04 μM), listed per entry for reference.
Test system: NCI-H292 lung cancer cells
Test Description: FDA drug screening, complete media vs cholesterol-free media with simvastatin (TABLE 2)
Assay type: cell-based, human
Condition Set: NCI-H292 cells, FDA drug library screen, cholesterol-free media with simvastatin 0.04 μM
Please give the numeric answer without any surrounding text.

Example compounds with recorded Cholesterol-free media + simvastatin (0.04 μM):
CNC(=O)c1cc(Oc2ccc(NC(=O)Nc3ccc(Cl)c(C(F)(F)F)c3)cc2)ccn1
0.7364
Nc1c2ccccc2nc2ccccc12
0.3257
N[C@@H](Cc1cc(I)c(Oc2cc(I)c(O)c(I)c2)c(I)c1)C(=O)O
1.059
C[C@H](Oc1cc(-c2cnn(C3CCNCC3)c2)cnc1N)c1c(Cl)ccc(F)c1Cl [(S)-Crizotinib]
1.094
Cc1cc2ncc(C(=O)NCC(C)(C)NCC(=O)N3CCC[C@H]3C#N)cn2n1
1.09

Recorded result, "NCCC[C@H](N)C(=O)O" , Cholesterol-free media + simvastatin (0.04 μM): 0.9484

###

Test system: NCI-H292 lung cancer cells
Test Description: FDA drug screening, complete media vs cholesterol-free media with simvastatin (TABLE 2)
Type: cell-based, human
Condition Set: NCI-H292 cells, complete media; cell growth value in FDA drug screen
Reported Property: Complete Media
API doc: respond with a numeric literal and nothing else, no unit.

OCCN(CCO)c1nc(N2CCCCC2)c2nc(N(CCO)CCO)nc(N3CCCCC3)c2n1
1.095
COc1ccc(C(C)=O)c(O)c1
1.107
N[C@@H]1[C@H]2CN(c3nc4c(cc3F)c(=O)c(C(=O)O)cn4-c3ccc(F)cc3F)C[C@@H]12
1.114
CCCCCCCC/C=C\CCCCCCCC(=O)O
0.8301
C[C@@H](O)[C@H]1C(=O)N2C(C(=O)O)=C([C@H]3CCCO3)S[C@H]12 [Faropenem sodium]
0.984

The observed Complete Media for "O=C(O)CC(O)(CC(=O)O)C(=O)O" when tested with NCI-H292 lung cancer cells stands at 0.9089

The recorded Complete Media with NCI-H292 lung cancer cells for "Nc1cc(F)ccc1NC(=O)c1ccc(CNC(=O)/C=C/c2cccnc2)cc1" was 0.6176

Measured on NCI-H292 lung cancer cells, O.O.O.O.O=P([O-])(O)C(Cl)(Cl)P(=O)([O-])O.[Na+].[Na+] [Clodronate (disodium tetrahydrate)] has a documented Complete Media of 0.9326

For c1ccc2c(c1)Sc1ccccc1N2CC1CN2CCC1CC2 (stereo not drawn) on NCI-H292 lung cancer cells, measured Complete Media was 0.9842

Here CCCC(=O)OCOC(=O)C1=C(C)NC(C)=C(C(=O)OC)C1c1cccc(Cl)c1Cl (stereo not drawn) was tested on NCI-H292 lung cancer cells, and its Complete Media came to 0.9036

###

Parameter: Difference. Scope: all listed entries.
Test system: NCI-H292 lung cancer cells
Test Description: FDA drug screening, complete media vs cholesterol-free media without statin (TABLE 1)
Assay type: cell-based, human
Condition Set: complete vs cholesterol-free media; >0 enhanced anti-cancer activity, about 0 neutral, <0 antagonist
Where a name gives a salt, the structure may show the parent alone.
Note: the reply should be a number with no unit written.

Below are worked cases with known answers.
C[C@H](CCC(=O)O)[C@H]1CC[C@H]2[C@@H]3CC[C@@H]4C[C@H](O)CC[C@]4(C)[C@H]3C[C@H](O)[C@]12C [Deoxycholic acid sodium salt]
0.15
COc1ccc(C(=O)N2CCN(c3ccc4c(c3)CCC(=O)N4)CC2)cc1OC
0.22
CC[C@H]1OC(=O)[C@H](C)[C@@H](O[C@H]2C[C@@](C)(OC)[C@@H](O)[C@H](C)O2)[C@H](C)[C@@H](O[C@@H]2O[C@H](C)C[C@H](N(C)C)[C@H]2O)[C@](C)(O)C[C@@H](C)/C(=N\OCOCCOC)[C@H](C)[C@@H](O)[C@]1(C)O
0.35
CNC(=O)c1ccc(N2C(=S)N(c3ccc(C#N)c(C(F)(F)F)c3)C(=O)C2(C)C)cc1F [Enzalutamide]
0.44
CN1CCCN=C1/C=C/c1cccs1.O=C(O)c1cc2ccccc2c(Cc2c(O)c(C(=O)O)cc3ccccc23)c1O [Pyrantel (pamoate)]
0.12

The compound Cc1ncc(COP(=O)(O)O)c(C=O)c1O [Pyridoxal phosphate] on NCI-H292 lung cancer cells: Difference was 0.47

###

Test system: NCI-H292 lung cancer cells
Test Description: FDA drug screening, complete media vs cholesterol-free media with simvastatin (TABLE 2)
Format: cell-based, human
Condition Set: NCI-H292 cells, complete media; cell growth value in FDA drug screen
Counter-ions that a name gives are not always drawn.
Entries and their Complete Media values follow.
Lab note: write the figure by itself, no unit.

O=c1[nH]c2ccccc2n1CCCN1CCC(n2c(=O)[nH]c3cc(Cl)ccc32)CC1
1.061
CNCC[C@@H](Oc1ccccc1C)c1ccccc1 [Atomoxetine (hydrochloride)]
1.803
CN(C)N(C)C(=O)[C@@]1(Cc2ccccc2)CCCN(C(=O)[C@@H](Cc2c[nH]c3ccccc23)NC(=O)C(C)(C)N)C1
1.358
CCC[C@@H]1C[C@@H](C(=O)N[C@@H]([C@H]2O[C@H](SC)[C@H](O)[C@@H](O)[C@H]2O)[C@H](C)Cl)N(C)C1 [Clindamycin (hydrochloride)]
1.299
O=C(O)CSCC(=O)NC1CCSC1=O (stereo not shown)
1.238
CCOC(=O)[C@H](CCc1ccccc1)N[C@@H](C)C(=O)N(CC(=O)O)C1Cc2ccccc2C1 [Delapril (hydrochloride)]
0.8772

Summary for this molecule, O=C(Cn1cnnn1)N[C@@H]1C(=O)N2C(C(=O)O)=C(CSc3nncs3)CS[C@H]12 [Ceftezole (sodium)] : Complete Media is 1.1

molecule COC(=O)c1ccccc1O [Methyl Salicylate] , Complete Media observed: 0.8959

Quick note, Complete Media for "COC(=O)N(C)c1c(N)nc(-c2nn(Cc3ccccc3F)c3ncccc23)nc1N" landed at 1.185

Lab note: Cc1cccc(C(C)c2cnc[nH]2)c1C (stereo not shown) [Medetomidine (hydrochloride)] gave Complete Media of 0.9447

Input Clc1ccc(Cn2c(CN3CCCC3)nc3ccccc32)cc1 [Clemizole (hydrochloride)] . Output Complete Media: 1.07

Record summary for "CCOC(=O)N1CCC(=C2c3ccc(Cl)cc3CCc3cccnc32)CC1" : reported Complete Media = 0.9097

// "Oc1ncnc2[nH]ncc12" : Complete Media value = 0.9734
